tested on: Puccinia triticina; Synonym: Puccinia recondite f. sp. tritici; assay: Wheat brown rust (PUCCRT) disease control on wheat seedlings; assay type: in vivo; settings: Puccinia triticina, 72 h; High volume application, 100 ppm; 3 Day Curative; read-out: PUCCRT 3DC disease control
readoutLabel: pest or weed control at 100 ppm

Task: Provide only the value of recorded pest or weed control at 100 ppm for COc1ccnc(C(=O)N[C@H]2CCC[C@H](OCC(C)C)[C@@H](OC/C=C/C(F)(F)F)[C@H](C)OC2=O)c1OC(C)=O
Result: 80 to 100%

Task: Provide only the value of recorded pest or weed control at 100 ppm for COc1ccnc(C(=O)N[C@H]2CCC[C@H](OCC(C)C)[C@@H](OC(=O)C3CC3)[C@H](C)OC2=O)c1O
Result: 80 to 100%

Task: Provide only the value of recorded pest or weed control at 100 ppm for COc1ccnc(C(=O)N[C@H]2CCC[C@H](OCC(C)C)[C@@H](Oc3ccc(F)cc3)[C@H](C)OC2=O)c1OCOC(=O)C(C)C
Result: 80 to 100%

###

system: Mycosphaerella graminicola; Anamorph: Septoria tritici; test: Leaf blotch of wheat (SEPTTR) disease control on wheat seedlings; assay type: in vivo; details: Zymoseptoria tritici, 24 h; Wheat Leaf Blotch; 1 Day Protectant; high volume application, 100 ppm; read-out: Disease Control SEPTTR 1 DP 100 ppm
I'd be grateful if you could share measured pest or weed control at 100 ppm for these entries.

Task: Provide only the value of recorded pest or weed control at 100 ppm for COc1ccnc(C(=O)N[C@H]2CCC[C@H](Oc3ccccc3)[C@@H](OC(=O)C3CCCC3)[C@H](C)OC2=O)c1OC(=O)C1CC1
Result: 0 to 80%

Task: Provide only the value of recorded pest or weed control at 100 ppm for COc1ccnc(C(=O)N[C@H]2CCC[C@H](Oc3ccccc3)[C@@H](OC(=O)C3CC3)[C@H](C)OC2=O)c1OC(C)=O
Result: 80 to 100%

Task: Provide only the value of recorded pest or weed control at 100 ppm for COc1ccnc(C(=O)N[C@H]2CCC[C@H](OCC(C)C)[C@@H](OC)[C@H](C)OC2=O)c1O
Result: 80 to 100%
